Target Under Test: ZFP SBS#620 (synthetic)
Sequence (chain, as listed by the source): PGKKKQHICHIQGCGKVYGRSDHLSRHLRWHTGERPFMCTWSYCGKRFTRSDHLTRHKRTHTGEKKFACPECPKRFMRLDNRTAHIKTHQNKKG
Test Summary: EMSA
Condition Parameters: tags: MBP fusion
Reported Metric: Kd

Identify measured Kd corresponding to AAGGGGGGG (dsDNA) DNA 1: AAGGGGGGG DNA 2: CCCCCCCTT
540 pM
